assayed_system: human GABAA α1β3γ2 receptor (Homo sapiens (Human), UniProt P14867+P18507)
assay_method_text: Radioligand binding assay, competition for [3H]Flumazenil, γ2-containing GABAA subtypes
particulars: Log[Ki α1β3γ2 (nM)/Ki α2β2γ1 (nM)]
observable: LogSel
Numbers only.

C[C@@H]1N=C(c2c(F)cccc2Cl)c2c(sc3c2C[C@@H](C(F)F)C3)-n2c(-c3cccnn3)nnc21 [Example 12] = 2.25

Okay, here is my list. What is LogSel for each of these?
1. C[C@@H]1N=C(c2c(F)cccc2F)c2c(sc3c2C[C@@H](C(F)F)C3)-n2c(CO)cnc21 [Example 21]
2. Cc1nnc2n1-c1sc3c(c1C(c1c(F)cccc1F)=N[C@H]2C)C[C@@H](C)C3 [Example 15]

2.11
1.21

Value sought for every listed molecule: LogSel.
1. Cc1nnc2n1-c1sc3c(c1C(c1c(F)cccc1F)=N[C@H]2C)C[C@@H](C(F)F)C3 [Example 5]
2. Fc1cccc(Cl)c1C1=NCc2nnc(C3CC3)n2-c2sc3c(c21)C[C@@H](C(F)F)C3 [Example 6]

1. 1.82
2. 1.99
